# Tested target: Potassium-transporting ATPase (Rattus norvegicus) (UniProt P09626+P18598)
# Test description: Gastric antisecretory activity was tested in rats at 30 mg/kg, po expressed as the percentage of inhibition against the acid output of the control group
# Type: functional, organism-based
# Set-up: dose 30 mg/kg
Parameter measured: inhibition (%)

Sample records with inhibition:
>  <Molecule>
CN(C)c1ccccc1C[S+]([O-])c1nccn1-c1ccc(C#N)cn1 (stereo unspecified)

>  <Measured value>
0

$$$$
>  <Molecule>
COc1ccnc(-n2ccnc2[S+]([O-])Cc2ccccc2N(C)C)c1 (stereo unspecified)

>  <Measured value>
95

$$$$
>  <Molecule>
CN(C)c1ccccc1C[S+]([O-])c1nccn1-c1cccnc1 (stereo unspecified)

>  <Measured value>
30

$$$$
>  <Molecule>
CN(C)c1ccccc1C[S+]([O-])c1nccn1-c1nccc2ccccc12 (stereo unspecified)

>  <Measured value>
65

$$$$

I. Cc1cccnc1-n1ccnc1[S+]([O-])Cc1ccccc1N(C)C (stereo unspecified)
II. CCN(CC)c1ccccc1C[S+]([O-])c1nc2c(n1-c1cccnc1)CCC2 (stereo unspecified)
Query string: Response body: label of entry with the larger inhibition; valid values I , II . Lab log: write the label of the selected item as the result.
Result string: I
(I: 100%, II: 0%)

1. CCNc1ccccc1C[S+]([O-])c1nccn1-c1ncccc1OC (stereo unspecified)
2. [O-][S+](Cc1ccccc1-n1ccnc1)c1nccn1-c1ccccn1 (stereo unspecified)
Query string: Quick check, higher inhibition between 1 and 2 ? Please indicate the selected item by its label.
Result string: 1
(1: 82%, 2: 22%)

* * *

# Tested target: Potassium-transporting ATPase (Sus scrofa, UniProt P19156)
# Sequence (P18434 whole entry): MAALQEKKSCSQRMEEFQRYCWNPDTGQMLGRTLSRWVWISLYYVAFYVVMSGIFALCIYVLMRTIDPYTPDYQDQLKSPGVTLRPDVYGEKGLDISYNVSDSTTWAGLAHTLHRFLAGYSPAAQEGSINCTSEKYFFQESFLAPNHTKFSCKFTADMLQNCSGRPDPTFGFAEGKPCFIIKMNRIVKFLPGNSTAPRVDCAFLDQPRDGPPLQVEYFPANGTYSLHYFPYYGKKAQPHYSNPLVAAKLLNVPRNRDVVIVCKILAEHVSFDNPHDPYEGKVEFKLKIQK
# Sequence (P19156 whole entry): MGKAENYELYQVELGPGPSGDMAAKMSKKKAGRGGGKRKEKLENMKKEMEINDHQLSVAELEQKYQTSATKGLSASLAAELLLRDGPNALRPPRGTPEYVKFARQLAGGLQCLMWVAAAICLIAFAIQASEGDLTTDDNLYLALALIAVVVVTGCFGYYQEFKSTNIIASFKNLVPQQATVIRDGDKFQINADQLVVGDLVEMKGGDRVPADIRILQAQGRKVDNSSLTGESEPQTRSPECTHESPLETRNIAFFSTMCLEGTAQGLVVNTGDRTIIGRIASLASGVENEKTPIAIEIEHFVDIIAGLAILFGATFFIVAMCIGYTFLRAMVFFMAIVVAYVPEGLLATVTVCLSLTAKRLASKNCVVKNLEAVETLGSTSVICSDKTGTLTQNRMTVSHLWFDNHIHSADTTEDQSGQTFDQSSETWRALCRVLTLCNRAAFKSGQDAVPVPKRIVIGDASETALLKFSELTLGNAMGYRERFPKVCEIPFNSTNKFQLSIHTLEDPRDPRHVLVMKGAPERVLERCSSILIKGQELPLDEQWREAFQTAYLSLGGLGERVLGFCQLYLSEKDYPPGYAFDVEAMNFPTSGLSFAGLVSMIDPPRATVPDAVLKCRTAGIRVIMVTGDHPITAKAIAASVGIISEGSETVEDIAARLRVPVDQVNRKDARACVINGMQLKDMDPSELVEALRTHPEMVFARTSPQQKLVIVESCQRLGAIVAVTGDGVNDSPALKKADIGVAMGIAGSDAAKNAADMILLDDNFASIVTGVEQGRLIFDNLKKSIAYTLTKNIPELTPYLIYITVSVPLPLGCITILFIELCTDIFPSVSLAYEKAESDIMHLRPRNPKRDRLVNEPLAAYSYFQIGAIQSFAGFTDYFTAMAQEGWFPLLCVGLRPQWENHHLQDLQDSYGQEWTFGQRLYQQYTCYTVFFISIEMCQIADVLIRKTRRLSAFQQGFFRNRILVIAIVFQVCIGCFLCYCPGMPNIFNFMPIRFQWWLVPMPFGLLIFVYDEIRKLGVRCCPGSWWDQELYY
# Test description: In vitro inhibition against H+/K+ ATPase from porcine gastric mucosal membrane vesicles
# Type: tissue-based, Gastric mucosa
pIC50: −log10 of the molar value.
Parameter measured: pIC50

Use these answered entries as a reference point.
>  <Compound>
CN(C)c1ccccc1C[S+]([O-])c1nccn1-c1ccc(C(F)(F)F)cn1 (configuration not stated)

>  <Tested target>
Potassium-transporting ATPase (Sus scrofa, UniProt P19156)

>  <pIC50>
5.13

$$$$
>  <Compound>
COc1cccc(-n2ccnc2[S+]([O-])Cc2ccccc2N(C)C)n1 (configuration not stated)

>  <Tested target>
Potassium-transporting ATPase (Sus scrofa, UniProt P19156)

>  <pIC50>
4.89

$$$$

P. CN(C)c1ccccc1C[S+]([O-])c1nccn1-c1nccc2ccccc12 (configuration not stated)
Q. CCN(CC)c1ccccc1C[S+]([O-])c1nccn1-c1ncccc1C (configuration not stated)
R. CCN(CC)c1ccccc1C[S+]([O-])c1nc2c(n1-c1ccccn1)CCC2 (configuration not stated)
S. CC(=O)Nc1ccc(-n2ccnc2[S+]([O-])Cc2ccccc2N(C)C)nc1 (configuration not stated)
Query string: // ascending sort on recorded pIC50 # the answer lists labels in the order requested
Result string: Q, P, S, R
(Q: 4.00, P: 4.37, S: 4.70, R: 4.96)

I. Cc1cccnc1-n1ccnc1[S+]([O-])Cc1ccccc1N(C)C (configuration not stated)
II. CC(=O)Oc1cccnc1-n1ccnc1[S+]([O-])Cc1ccccc1N(C)C (configuration not stated)
Query string: In terms of reported pIC50, does I or II have the smaller number? Kindly give the label for the entry you pick.
Result string: I
(I: 4.48, II: 4.92)

A. CN(C)c1ccccc1C[S+]([O-])c1nccn1-c1ncccc1OCc1ccccc1 (configuration not stated)
B. CNc1ccccc1C[S+]([O-])c1nccn1-c1ccccn1 (configuration not stated)
Query string: Return label of the item with the larger pIC50. Candidates: A , B . Identify your pick by its label.
Result string: B
(B: 5.15, A: 4.80)

I. CCNc1ccccc1C[S+]([O-])c1nccn1-c1ncccc1OC (configuration not stated)
II. CN(C)c1ccccc1C[S+]([O-])c1nccn1-c1ccc([N+](=O)[O-])cn1 (configuration not stated)
Query string: Select the item with the higher value of pIC50 from the options I and II listed. Give the chosen item's label as your response.
Result string: I
(I: 5.12, II: 4.22)

1. CNc1ccccc1C[S+]([O-])c1nccn1-c1ncccc1C (configuration not stated)
2. Cc1cc(Br)cnc1-n1ccnc1[S+]([O-])Cc1ccccc1N(C)C (configuration not stated)
3. Cc1cccc(-n2ccnc2[S+]([O-])Cc2ccccc2N(C)C)n1 (configuration not stated)
Query string: Hello, I need these entries ordered by pIC50, highest reading first. Thanks! # respond with the labels, arranged in the requested order
Result string: 1, 3, 2

P. CN(C)c1ccccc1C[S+]([O-])c1nc2c(n1Cc1ccccn1)CCC2 (configuration not stated)
Q. CN(C)c1ccccc1C[S+]([O-])c1nccn1-c1ccc(C#N)cn1 (configuration not stated)
Query string: Problem: Given the entries P and Q , determine which has the lower reported pIC50. Please respond with the label that marks your chosen entry.
Result string: P
(P: 4.26, Q: 4.46)

I. CN(C)c1ccccc1C[S+]([O-])c1nc2c(n1-c1ccccn1)CCCC2 (configuration not stated)
II. CN(C)c1ccccc1C[S+]([O-])c1nccn1-c1ccncc1 (configuration not stated)
Query string: Input pair: I , II . Output: entry with lower pIC50. Choose, then provide that item's label.
Result string: I
